Test system: Human papillomavirus type 1a protein E7 (residues 44-93)
Assay: small molecules binding HPV E7 44-93 – biochemical, small-molecule microarray, residues 44-93, 635 nm fluorescence, primary screen (AID 1108);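 note: E7 fragment applied at 1 µg/mL in TBST for 1 h at 4 C; score combines spot fluorescence with its signal to noise ratio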
Conditions: fluorescence 635 nm, higher = more signal
Everything with composite z-score lower than 1 is Not satisfied; everything else, including exactly 1, is Satisfied.

[ask] Threshold query (composite z-score >= 1) on COc1ccc([Si](C)(C)[C@@H]2[C@@H](CCn3cc([C@H](O)c4ccccc4)nn3)O[C@]3(C(=O)N(C)c4ccccc43)[C@H]2C)cc1
[reply] Not satisfied

---
[ask] Can C=CC[C@@]1(C(=O)NCc2ccccc2)N=C(c2ccc(OCCCO)cc2)O[C@@H]1c1ccccc1CN=[N+]=[N-] be said to have composite z-score at or above 1?
[reply] Satisfied

[ask] Is reported composite z-score greater than or equal to 1 here: CCOC(=O)N1C(c2ccc(OCCCO)cc2)=NC(C(=O)OC)N1C(=O)OCC (stereo not given)
[reply] Satisfied

[ask] Determine whether measured composite z-score meets or exceeds 1 for C=C(/C(=C/C[C@@H](OC(C)=O)c1ccc(CO)o1)c1cnc2ccccc2c1)C(C)C
[reply] Satisfied

[ask] Quick check, composite z-score >= 1? COc1ccc([Si](C)(C)[C@@H]2[C@@H](CCO)O[C@]3(C(=O)N(Cc4cccc(N(C=O)c5ccccc5)c4)c4ccccc43)[C@H]2C)cc1
[reply] Not satisfied

[ask] Evaluate COC(=O)[C@@]1(Cc2ccccc2)[C@H]2c3cc(C(=O)N(C)C)n(Cc4ccccc4)c3C[C@H]2CN1C(=O)c1ccccc1 : composite z-score at minimum 1?
[reply] Not satisfied

[ask] composite z-score >= 1 for O=C1OCC=C[C@H]2OC34C=CCN(c5ccc(Cl)cc5)C(=O)[C@H]3N(CCCO)C(=O)[C@@H]4[C@@H]12 (stereo not given in full) ?
[reply] Not satisfied

[ask] Kindly determine if composite z-score recorded for CCCNC(=O)[C@@]1(C)c2ccccc2C(=O)N(Cc2ccc(OC(F)(F)F)cc2)[C@H]1c1ccc(CO)cc1 is above or exactly 1.
[reply] Not satisfied

[ask] Check the entry COCCOC(=O)N1C(=O)[C@@]2(c3cc(C#Cc4ccc(OC)cc4)ccc31)[C@H](C(N)=O)[C@H]1C(=O)O[C@H](c3ccccc3)[C@H](c3ccccc3)N1[C@@H]2c1ccc(O)cc1 : does composite z-score equal or exceed 1?
[reply] Not satisfied

[ask] I'd appreciate it if you could say whether C=C(CCCC)/C(=C/C[C@H](OC(C)=O)c1ccc(CO)o1)c1cc(C(=O)OC)ccc1OC has composite z-score at least equal to 1.
[reply] Satisfied

[ask] Test whether the compound C[N+](C)(C)CCCC[C@@H]1NC(=O)[C@H]2C[C@@H](C(=O)O)[C@@H](c3cccc(OCCO)c3)N2C1=O records composite z-score of 1 or higher.
[reply] Satisfied

[ask] Given the entry C=CC[C@@]1(C(=O)NCCN2CCOCC2)N=C(c2ccc(OCCCO)cc2)O[C@@H]1c1ccccc1CN=[N+]=[N-] , answer whether its composite z-score meets or surpasses 1.
[reply] Not satisfied

[ask] Decide: composite z-score of O=[N+]([O-])c1ccc(C[n+]2ccc(CCCO)cc2)o1 >= 1?
[reply] Satisfied

[ask] Test whether the compound CCCCC(=O)N(Cc1ccccc1F)[C@@H]1CC(C(=O)NCCO)=C[C@H](Oc2c(I)cc(CO)cc2OC)[C@H]1O records composite z-score of 1 or higher.
[reply] Satisfied

[ask] Is it the case that C=C(/C(=C/C[C@@H](OC(=O)c1ccncc1)c1ccc(CO)o1)c1cc(C(=O)OC)ccc1OC)C(C)C has composite z-score reaching or exceeding 1?
[reply] Not satisfied
